- Tested on: PPARg:RXRa IVT, anti-PPARg (NR concentration 270 nM, RXRa partner concentration 90 nM)
- test: PBM binding z-score (relative to random genomic background probes); higher = stronger binding; sequences stand for … in GC…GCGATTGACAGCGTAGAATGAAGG
Please provide measured PBM binding z-score for the entries that follow.
Numbers only.

1) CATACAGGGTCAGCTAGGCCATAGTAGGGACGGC :: 2.3
2) AAAGACAGGTGAGTGAAGGTAACTCAGCTGGACG :: 0.948
3) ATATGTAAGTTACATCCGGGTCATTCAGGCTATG :: 2.35

Look at each sequence and report its PBM binding z-score.
1. ATCTCTAGGTAAAAGTTCTGTGAATCCCGAGGAT
2. TGAATGAGGTTAGAAGATCAGGGAACGTTGCAAA
3. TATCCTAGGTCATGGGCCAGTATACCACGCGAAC

[1.91, 1.07, 5.29]

====

- Test system: VDR:RXRa (NR concentration 270 nM, RXRa partner concentration 90 nM)
- test: PBM binding z-score (relative to random genomic background probes); higher = stronger binding; sequences stand for … in GC…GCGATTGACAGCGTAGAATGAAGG
assayMetric: PBM binding z-score
One number for each entry.

1) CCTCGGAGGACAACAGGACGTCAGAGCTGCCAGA :: -0.499
2) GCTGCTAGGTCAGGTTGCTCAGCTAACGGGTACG :: 0.0611
3) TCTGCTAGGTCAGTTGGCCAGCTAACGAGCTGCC :: -0.113
4) GTACCAAGGTGAATAGGTCGATGATGAGTAGGCG :: 0.674
5) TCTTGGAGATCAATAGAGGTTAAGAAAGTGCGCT :: 2.08
6) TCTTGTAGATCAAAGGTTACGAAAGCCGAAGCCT :: 1.6

Batch request: PBM binding z-score per item, same order as input.
1. CTCGAAAGGTCGGTTGAGGTGAATATACGGATAA
2. ACTTACGGGTCAAAGAGGTTATAGCACGCGTATA
3. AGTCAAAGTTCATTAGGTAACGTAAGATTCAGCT
4. GCTGCTTGGTCAGGTTGGTCAGCTAACGGGTACG
5. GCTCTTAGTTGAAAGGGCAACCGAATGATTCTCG

[2.79, 7.09, 4.72, -0.35, 0.445]

Report PBM binding z-score for each item below.
1. TCTGCTAGGTCAGTTGGTCAGCTCACGAGCTGCC
2. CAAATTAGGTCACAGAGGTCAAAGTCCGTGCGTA

1: 0.484; 2: 8.12

Please report PBM binding z-score for every entry that follows.
1. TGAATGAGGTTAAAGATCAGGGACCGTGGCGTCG
2. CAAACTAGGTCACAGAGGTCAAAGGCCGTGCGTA
3. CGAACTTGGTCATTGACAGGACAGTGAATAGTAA
4. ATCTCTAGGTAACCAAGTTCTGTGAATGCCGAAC

[1.77, 8.04, 0.0642, 0.866]

Here are 2 sequences. What values of PBM binding z-score were reported for them?
1. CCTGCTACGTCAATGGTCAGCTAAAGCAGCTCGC
2. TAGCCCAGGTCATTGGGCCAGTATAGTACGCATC

1. -0.379
2. 3.03

====

- Tested on: FXR:RXRa (NR concentration 270 nM, RXRa partner concentration 90 nM)
- test: PBM binding z-score (relative to random genomic background probes); higher = stronger binding; sequences stand for … in GC…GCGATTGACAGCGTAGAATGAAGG
Label rule, in plain words: PBM binding z-score of 2 and up is satisfied, under 2 is not satisfied.

Check this sequence for PBM binding z-score at or above 2: "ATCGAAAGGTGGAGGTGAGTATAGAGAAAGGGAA"
not satisfied

Evaluate "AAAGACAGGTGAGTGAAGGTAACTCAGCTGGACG" : PBM binding z-score at minimum 2?
not satisfied

====

- Tested on: VDR homodimer (NR concentration 270 nM)
- test: PBM binding z-score (relative to random genomic background probes); higher = stronger binding; sequences stand for … in GC…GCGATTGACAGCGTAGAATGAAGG
assayMetric: PBM binding z-score
Numbers only.

Below, each entry is followed by its recorded PBM binding z-score result.
1. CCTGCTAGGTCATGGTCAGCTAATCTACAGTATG :: 0.473
2. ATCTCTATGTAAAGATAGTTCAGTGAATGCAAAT :: 0.366
3. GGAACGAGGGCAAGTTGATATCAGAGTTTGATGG :: 2.21
4. AGAACGAGGGCACGCTGAGTTAATAGCAGAGTAG :: 1.08
5. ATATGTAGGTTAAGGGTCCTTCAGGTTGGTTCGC :: 1.01

Return reported PBM binding z-score values for all items listed beneath this line.
1. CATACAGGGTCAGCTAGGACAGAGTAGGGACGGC
2. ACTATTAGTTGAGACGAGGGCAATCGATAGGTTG
3. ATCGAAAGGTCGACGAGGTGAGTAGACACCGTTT
4. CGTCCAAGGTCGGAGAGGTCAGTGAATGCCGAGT

1: 1.19; 2: 1.06; 3: 0.955; 4: 3.93

Dear reader, for each entry below, please note its PBM binding z-score.
1. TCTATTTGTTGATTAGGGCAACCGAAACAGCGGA
2. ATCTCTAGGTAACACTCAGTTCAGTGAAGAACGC
3. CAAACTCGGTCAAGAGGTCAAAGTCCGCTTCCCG

1. 0.505
2. 2.25
3. 3.72

====

- Test system: THRa:RXRa (NR concentration 90 nM, RXRa partner concentration 90 nM)
- test: PBM binding z-score (relative to random genomic background probes); higher = stronger binding; sequences stand for … in GC…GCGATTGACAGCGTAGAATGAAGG
Consider the following sequences; for each one, report its PBM binding z-score.
Numbers only.

List PBM binding z-score for every entry below, keeping the order given.
1. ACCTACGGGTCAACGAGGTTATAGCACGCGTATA
2. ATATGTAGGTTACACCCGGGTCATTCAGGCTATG

3.88
3.77

For each entry beneath this line, provide reported PBM binding z-score.
1. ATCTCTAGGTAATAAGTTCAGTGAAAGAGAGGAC
2. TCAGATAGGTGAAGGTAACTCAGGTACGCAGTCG
3. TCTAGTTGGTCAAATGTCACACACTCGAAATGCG
4. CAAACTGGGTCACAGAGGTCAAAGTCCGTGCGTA
5. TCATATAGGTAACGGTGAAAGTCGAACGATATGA
6. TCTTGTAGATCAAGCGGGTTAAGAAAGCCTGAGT
7. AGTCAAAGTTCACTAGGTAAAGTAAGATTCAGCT
8. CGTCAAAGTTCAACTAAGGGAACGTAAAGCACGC

1.64
1.17
0.653
4.4
-0.0623
0.221
1.75
4.49

For each of the sequences below, state PBM binding z-score.
1. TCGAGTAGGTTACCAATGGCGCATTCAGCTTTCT
2. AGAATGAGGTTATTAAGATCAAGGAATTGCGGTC

1: -0.246; 2: 2.13

====

- Test system: LXRa:RXRa (NR concentration 270 nM, RXRa partner concentration 90 nM)
- test: PBM binding z-score (relative to random genomic background probes); higher = stronger binding; sequences stand for … in GC…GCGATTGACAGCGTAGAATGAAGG
Class MET: PBM binding z-score at least 0.4. Class NOT MET: PBM binding z-score below 0.4.

Evaluate "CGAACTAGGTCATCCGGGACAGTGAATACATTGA" : PBM binding z-score at minimum 0.4?
MET

Say whether "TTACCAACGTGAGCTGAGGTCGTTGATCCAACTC" shows PBM binding z-score of 0.4 or more.
NOT MET

Please indicate if the recorded PBM binding z-score for "AGTTAAAGTTCAGGACGAGGTAACGTAAAGCACG" meets or exceeds 0.4.
MET

Given the entry "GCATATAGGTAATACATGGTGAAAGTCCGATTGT" , answer whether its PBM binding z-score meets or surpasses 0.4.
NOT MET

Hello, I need to know if "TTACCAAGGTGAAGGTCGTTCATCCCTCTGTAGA" has measured PBM binding z-score not below 0.4. Thanks!
MET

State whether the measured PBM binding z-score reaches 0.4, counting equality as reaching it, for "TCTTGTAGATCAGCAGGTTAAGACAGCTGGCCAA"
MET

====

- Test system: PPARg:RXRa 270nM:90nM, anti-RXR (NR concentration 270 nM, RXRa partner concentration 90 nM)
- test: PBM binding z-score (relative to random genomic background probes); higher = stronger binding; sequences stand for … in GC…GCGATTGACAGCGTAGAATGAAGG
Provide the reported PBM binding z-score of each item.
One number for each entry.

For orientation, consider the following solved cases.
1) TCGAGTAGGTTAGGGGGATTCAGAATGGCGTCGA :: 3.21
2) CTACCAAGGTGAACAAGGTCGTTGACTACTATTC :: 1.68
3) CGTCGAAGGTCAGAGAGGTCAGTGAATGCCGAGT :: 4.39
4) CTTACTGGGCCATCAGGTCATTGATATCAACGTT :: 5.22
5) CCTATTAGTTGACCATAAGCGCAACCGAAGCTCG :: 0.456
6) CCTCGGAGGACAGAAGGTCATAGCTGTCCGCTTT :: 1.68
7) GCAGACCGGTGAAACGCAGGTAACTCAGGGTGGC :: -1.18
8) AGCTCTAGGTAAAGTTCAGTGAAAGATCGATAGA :: 2.93
9) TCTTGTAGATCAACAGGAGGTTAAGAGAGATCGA :: 1.38
10) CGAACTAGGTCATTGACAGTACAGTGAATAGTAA :: 6.38

Look up PBM binding z-score for the entries below, preserving their order.
1. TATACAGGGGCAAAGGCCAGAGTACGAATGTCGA
2. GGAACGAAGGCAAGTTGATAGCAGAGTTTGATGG

5.09
-0.479
